Tested on: HeLa Kyoto
Assay: solubility change mitosis vs G1/S (difference of NP-40 vs SDS log2 ratios) (log2 ratio difference); higher = more soluble in mitosis
ASSAY_METRIC: solubility change mitosis (log2)
Answers are plain numbers.

sequence_content="MGEKSENCGVPEDLLNGLKVTDTQEAECAGPPVPDPKNQHSQSKLLRDDEAHLQEDQGEEECFHDCSASFEEEPGADKVENKSNEDVNSSELDEEYLIELEKNMSDEEKQKRREESTRLKEEGNEQFKKGDYIEAESSYSRALEMCPSCFQKERSILFSNRAAARMKQDKKEMAINDCSKAIQLNPSYIRAILRRAELYEKTDKLDEALEDYKSILEKDPSIHQAREACMRLPKQIEERNERLKEEMLGKLKDLGNLVLRPFGLSTENFQIKQDSSTGSYSINFVQNPNNNR [TTC1]" endpoint_value=0.183

# input for lookup
Under HeLa Kyoto: solubility change mitosis (log2) value of MAMLVLVPGRVMRPLGGQLWRFLPRGLEFWGPAEGTARVLLRQFCARQAEAWRASGRPGYCLGTRPLSTARPPPPWSQKGPGDSTRPSKPGPVSWKSLAITFAIGGALLAGMKHVKKEKAEKLEKERQRHIGKPLLGGPFSLTTHTGERKTDKDYLGQWLLIYFGFTHCPDVCPEELEKMIQVVDEIDSITTLPDLTPLFISIDPERDTKEAIANYVKEFSPKLVGLTGTREEVDQVARAYRVYYSPGPKDEDEDYIVDHTIIMYLIGPDGEFLDYFGQNKRKGEIAASIATHMRPYRKKS [SCO1] ?
-0.107

---

Tested on: HeLa Kyoto;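 also: synchronized HeLa Kyoto cells (double thymidine block for G1/S, nocodazole release for mitosis), protein amounts in NP-40 versus SDS lysates quantified by mass spectrometry, three biological replicates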
Assay: solubility change mitosis vs G1/S (difference of NP-40 vs SDS log2 ratios) (log2 ratio difference); higher = more soluble in mitosis
ASSAY_METRIC: solubility change mitosis (log2)
Answers are plain numbers.

sequence_content="MAGDSEQTLQNHQQPNGGEPFLIGVSGGTASGKSSVCAKIVQLLGQNEVDYRQKQVVILSQDSFYRVLTSEQKAKALKGQFNFDHPDAFDNELILKTLKEITEGKTVQIPVYDFVSHSRKEETVTVYPADVVLFEGILAFYSQEVRDLFQMKLFVDTDADTRLSRRVLRDISERGRDLEQILSQYITFVKPAFEEFCLPTKKYADVIIPRGADNLVAINLIVQHIQDILNGGPSKRQTNGCLNGYTPSRKRQASESSSRPH [UCK2]" endpoint_value=0.265
sequence_content="MDLRQFLMCLSLCTAFALSKPTEKKDRVHHEPQLSDKVHNDAQSFDYDHDAFLGAEEAKTFDQLTPEESKERLGKIVSKIDGDKDGFVTVDELKDWIKFAQKRWIYEDVERQWKGHDLNEDGLVSWEEYKNATYGYVLDDPDPDDGFNYKQMMVRDERRFKMADKDGDLIATKEEFTAFLHPEEYDYMKDIVVQETMEDIDKNADGFIDLEEYIGDMYSHDGNTDEPEWVKTEREQFVEFRDKNRDGKMDKEETKDWILPSDYDHAEAEARHLVYESDQNKDGKLTKEEIVDKYDLFVGSQATDFGEALVRHDEF [CALU]" endpoint_value=0.167

# input for lookup
Field request: solubility change mitosis (log2) | item: MASVGECPAPVPVKDKKLLEVKLGELPSWILMRDFSPSGIFGAFQRGYYRYYNKYINVKKGSISGITMVLACYVLFSYSFSYKHLKHERLRKYH [ATP5J2]
-0.104
